Measured values drawn from patent US20240252688A1 for this set.

System: A549-Dual cells
Assay: Single-point screen: cell viability by CellTiter-Glo
Conditions: A549-Dual cells incubated overnight with compound at 50 μM, then NP-1+mRNA 20 ng/well + IFN 1:50
Where a name gives a salt, the structure may show the parent alone.
Recorded measurements of % viability, one per entry

| MOLECULE | TARGET_SYSTEM | % viability (%) |
| --- | --- | --- |
| Cn1nccc1Nc1nccc(-c2ccn([C@H](CO)c3ccc(Cl)c(F)c3)c(=O)c2)n1 [Ravoxertinib hydrochloride] | A549-Dual cells | 96 |
| Cn1nc(C(C)(C)C)cc1NC(=O)Nc1ccc(Oc2ccncc2)cc1 | A549-Dual cells | 59 |
| O=C1Nc2ccccc2/C1=C/c1ccccn1 | A549-Dual cells | 90 |
| Cl.O=C(NC1CCNCC1)c1n[nH]cc1NC(=O)c1c(Cl)cccc1Cl [AT7519 (Hydrochloride)] | A549-Dual cells | 42 |
| O=C1NCCSc2c1sc1ccc(O)cc21 | A549-Dual cells | 52 |
| COCCOc1ccc(-c2cn(-c3ccccc3)c3nc[nH]c(=O)c23)cc1 | A549-Dual cells | 92 |
| Cc1[nH]ncc1-c1cc2nc([C@H]3CC4CCN3CC4)[nH]c(=O)c2s1 [(R)-Simurosertib] | A549-Dual cells | 86 |
| COc1cc(Nc2ncc3ccn(-c4cccc(CCC#N)c4)c3n2)cc(OC)c1OC | A549-Dual cells | 18 |
| Oc1cccc(Nc2ncc(F)c(Nc3cccc(O)c3)n2)c1 | A549-Dual cells | 76 |
| Cc1nc2c(NCc3cccc(S(C)(=O)=O)c3)nccn2c1-c1ccc(O)c(F)c1 | A549-Dual cells | 93 |
| CCN1CCN(Cc2ccc(NC(=O)Nc3ccc(Oc4cc(NC)ncn4)cc3)cc2C(F)(F)F)CC1 | A549-Dual cells | 32 |
| C[C@@]1(O)CCC[C@H]1n1c(=O)c(C(F)F)cc2cnc(NC3CCN(S(C)(=O)=O)CC3)nc21 | A549-Dual cells | 55 |
| Cc1cc(Nc2cc(Cl)nc(Oc3ccc([N+](=O)[O-])cc3)n2)n[nH]1 | A549-Dual cells | 49 |
| COc1ccc(-c2c[nH]c3nccc(-c4ccsc4)c23)c(OC)c1 | A549-Dual cells | 33 |
| CC[C@H](CO)Nc1nc(NCc2ccccc2)c2ncn(C(C)C)c2n1 | A549-Dual cells | 45 |
| Cc1cc(O)c(-c2ccc([C@@H](C)CN)cc2)c2c1[nH]c(=O)c1sccc12 | A549-Dual cells | 66 |
| COc1ccc(F)cc1-c1cc(NC(=O)[C@@H]2CCCNC2)ncc1Cl | A549-Dual cells | 23 |
| CN(c1ccc(NC(=O)Nc2ccc(OC(F)(F)F)cc2)cc1)c1ccnc(Nc2cccc(S(N)(=O)=O)c2)n1 [GW806742X (hydrochloride)] | A549-Dual cells | 41 |
| Cc1ncc(-c2ccnc(Nc3ccc(S(C)(=O)=O)cc3)n2)n1C(C)C | A549-Dual cells | 46 |
| C[C@@H](Oc1ccc2[nH]nc(/C=C/c3cnn(CCO)c3)c2c1)c1c(Cl)cncc1Cl | A549-Dual cells | 58 |
| COc1ccc(CCNCc2ccc(OCc3ccc(Cl)nc3)c(OC)c2)cc1OC [SBE13 (Hydrochloride)] | A549-Dual cells | 105 |

###

Tested on: NF-κB
Assay: Single-point screen: NFκB activation (SEAP reporter)
Assay type: cell-based, human
Settings: Homo sapiens, 24 h; A549-Dual cells, compound 50 μM pre-treatment, NP-1+mRNA 20 ng/well + IFN; read-out: fold NFkB over IFN
Structures can show the parent of a compound that is named as a salt.
Assign 1 whenever fold induction at 50 µM does not fall below 0.6; assign -1 whenever it does.

| COMPOUND | TARGET_SYSTEM | CLASSIFICATION |
| --- | --- | --- |
| CN1CC[C@@H](c2c(O)cc(O)c3c(=O)cc(-c4ccc(C(F)(F)F)cc4Cl)oc23)[C@@H]1CO [Voruciclib (hydrochloride)] | NF-κB | 1 |
| Cc1nc2c(NCc3cccc(S(C)(=O)=O)c3)nccn2c1-c1ccc(O)c(F)c1 | NF-κB | 1 |
| Cl.O=C(NC1CCNCC1)c1n[nH]cc1NC(=O)c1c(Cl)cccc1Cl [AT7519 (Hydrochloride)] | NF-κB | -1 |
| CN(c1ccc(NC(=O)Nc2ccc(OC(F)(F)F)cc2)cc1)c1ccnc(Nc2cccc(S(N)(=O)=O)c2)n1 [GW806742X (hydrochloride)] | NF-κB | 1 |
| COCCOc1ccc(-c2cn(-c3ccccc3)c3nc[nH]c(=O)c23)cc1 | NF-κB | 1 |
| Cc1cnc(-c2cnc(NCCNc3ccc(C#N)cn3)nc2-c2ccc(Cl)cc2Cl)[nH]1 [CHIR-99021 (monohydrochloride)] | NF-κB | 1 |
| CN1CC[C@H](c2c(O)cc(O)c3c(=O)cc(-c4ccc(C(F)(F)F)cc4Cl)oc23)[C@H]1CO [(2S,3R)-Voruciclib (hydrochloride)] | NF-κB | -1 |
| C[C@@]1(O)CCC[C@H]1n1c(=O)c(C(F)F)cc2cnc(NC3CCN(S(C)(=O)=O)CC3)nc21 | NF-κB | 1 |
| C[C@@H](Oc1ccc2[nH]nc(/C=C/c3cnn(CCO)c3)c2c1)c1c(Cl)cncc1Cl | NF-κB | -1 |
| Cn1nccc1Nc1nccc(-c2ccn([C@H](CO)c3ccc(Cl)c(F)c3)c(=O)c2)n1 [Ravoxertinib hydrochloride] | NF-κB | 1 |
| C[C@H](Nc1cc(-c2cnn(C)c2)cc(Nc2cnccn2)n1)c1ccc(F)cc1 | NF-κB | 1 |
| Oc1cccc(Nc2ncc(F)c(Nc3cccc(O)c3)n2)c1 | NF-κB | 1 |
| CC[C@H](CO)Nc1nc(NCc2ccccc2)c2ncn(C(C)C)c2n1 | NF-κB | -1 |
| Cc1ncc(-c2ccnc(Nc3ccc(S(C)(=O)=O)cc3)n2)n1C(C)C | NF-κB | -1 |
| Cc1cc(F)c(C(=O)Nc2cccc(-c3nncn3C(C)C)n2)cc1-n1cnc(C2CC2)c1 | NF-κB | 1 |
| COc1ccc(F)cc1-c1cc(NC(=O)[C@@H]2CCCNC2)ncc1Cl | NF-κB | -1 |
| Cc1cc(O)c(-c2ccc([C@@H](C)CN)cc2)c2c1[nH]c(=O)c1sccc12 | NF-κB | -1 |
| CCN1CCN(Cc2ccc(NC(=O)Nc3ccc(Oc4cc(NC)ncn4)cc3)cc2C(F)(F)F)CC1 | NF-κB | -1 |
| COc1cc(Nc2ncc3ccn(-c4cccc(CCC#N)c4)c3n2)cc(OC)c1OC | NF-κB | -1 |
| C[C@H](Nc1cc(-c2cnn(C)c2)cc(Nc2cnccn2)n1)c1ccc(F)cc1.Cl [Ilginatinib hydrochloride] | NF-κB | 1 |
